# target or test system: mTOR (human recombinant aa mTOR 1360-2549) (Homo sapiens (Human), UniProt P42345)
# Sequence (P42345 1360-2549): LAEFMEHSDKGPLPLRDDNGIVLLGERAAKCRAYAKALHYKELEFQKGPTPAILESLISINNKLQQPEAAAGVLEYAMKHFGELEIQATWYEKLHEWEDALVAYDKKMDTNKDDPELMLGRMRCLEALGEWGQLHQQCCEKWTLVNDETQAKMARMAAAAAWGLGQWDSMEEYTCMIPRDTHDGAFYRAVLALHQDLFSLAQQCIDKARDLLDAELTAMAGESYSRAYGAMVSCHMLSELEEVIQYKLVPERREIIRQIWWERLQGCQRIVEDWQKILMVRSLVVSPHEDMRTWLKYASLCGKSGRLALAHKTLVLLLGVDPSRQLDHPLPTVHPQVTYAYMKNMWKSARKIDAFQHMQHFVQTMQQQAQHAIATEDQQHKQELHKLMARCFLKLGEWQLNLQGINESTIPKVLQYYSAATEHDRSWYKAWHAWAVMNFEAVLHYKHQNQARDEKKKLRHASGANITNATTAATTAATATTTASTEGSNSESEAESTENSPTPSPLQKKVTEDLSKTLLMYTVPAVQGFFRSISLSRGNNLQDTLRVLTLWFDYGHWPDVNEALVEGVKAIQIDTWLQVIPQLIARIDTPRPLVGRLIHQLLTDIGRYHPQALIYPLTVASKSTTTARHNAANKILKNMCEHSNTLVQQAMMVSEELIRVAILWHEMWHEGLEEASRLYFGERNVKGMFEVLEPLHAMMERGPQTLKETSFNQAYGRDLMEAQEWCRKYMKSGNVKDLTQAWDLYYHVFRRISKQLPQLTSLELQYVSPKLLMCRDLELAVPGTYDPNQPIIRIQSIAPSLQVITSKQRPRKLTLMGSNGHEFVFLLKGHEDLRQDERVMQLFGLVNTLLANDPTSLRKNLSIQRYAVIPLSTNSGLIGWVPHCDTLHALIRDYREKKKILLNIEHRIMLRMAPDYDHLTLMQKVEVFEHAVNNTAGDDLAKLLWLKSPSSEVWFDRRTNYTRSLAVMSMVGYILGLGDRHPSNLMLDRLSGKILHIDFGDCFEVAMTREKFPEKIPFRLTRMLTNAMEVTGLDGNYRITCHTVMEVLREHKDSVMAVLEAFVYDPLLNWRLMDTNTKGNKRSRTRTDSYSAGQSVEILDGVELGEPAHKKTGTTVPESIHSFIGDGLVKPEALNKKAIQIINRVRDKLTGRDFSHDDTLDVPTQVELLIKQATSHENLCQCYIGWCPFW
# experiment summary: mTOR enzymatic test by TR-FRET (phosphorylation of GFP-4EBP1)
pIC50: −log10 of the molar value.
Assign class 1 to entries whose pIC50 meets or exceeds 7; assign class 0 to the rest.

>>> class_assignment("CCN1CC(C)(C)Oc2nc(N3CC4CCC(C3)O4)nc(-c3ccc(NC(=O)Nc4ccc(OCCOC)cn4)cc3)c2C1=O [Example 40]")
"class 1"
>>> class_assignment("CC[C@H]1COCCN1c1ccc(NC(=O)Nc2ccc(-c3nc(N4C5CCC4COC5)nc4c3C(=O)N(CC)CC(C)(C)O4)cc2F)cn1 [Example 249]")
"class 0"
>>> class_assignment("CCN1CC(C)(C)Oc2nc(N3CCOC[C@@H]3C)nc(-c3ccc(NC(=O)Nc4ccc(N5CCN(C)CC5)cn4)cc3)c2C1=O [Example 218]")
"class 1"
>>> class_assignment("COCCN1CC(C)(C)Oc2nc(N3CCOC[C@@H]3C)nc(-c3ccc(NC(=O)Nc4ccon4)cc3)c2C1=O [Example 180]")
"class 1"
>>> class_assignment("CCN1CC(C)(C)Oc2nc(N3CC4CCC(C3)O4)nc(-c3ccc(NC(=O)Nc4cc(OC)ccn4)cc3)c2C1=O [Example 35]")
"class 1"
